Target: T1, cynoSIRPα (XP_015313155), Extracellular Domain + His-Tag (cynomolgus monkey)
T1 construct: also called CySIRPα XP_015313155; not shown: His-Tag
T1 chain: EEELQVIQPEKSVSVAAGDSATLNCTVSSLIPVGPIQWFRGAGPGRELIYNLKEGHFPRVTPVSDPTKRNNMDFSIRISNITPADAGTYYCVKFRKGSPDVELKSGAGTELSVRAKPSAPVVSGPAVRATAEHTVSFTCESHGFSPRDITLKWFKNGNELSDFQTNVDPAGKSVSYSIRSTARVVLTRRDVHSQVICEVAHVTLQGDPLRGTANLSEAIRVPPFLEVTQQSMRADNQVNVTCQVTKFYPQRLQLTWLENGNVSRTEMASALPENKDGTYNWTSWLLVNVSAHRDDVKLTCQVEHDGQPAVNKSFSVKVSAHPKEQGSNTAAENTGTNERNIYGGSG
Test: SPR, antibody captured on Protein A/G, ECD-His analyte, 1:1 fit
measurementLabel: koff (s⁻¹)
Kindly provide the numeric value in s⁻¹ only, without the unit symbol.

Answered cases to consult:
# binder, measurementLabel, unitSpec, val
data = [
    ("Antibody E6 (antibody, human IgG1, kappa, L234A L235A, V domains shown) VH: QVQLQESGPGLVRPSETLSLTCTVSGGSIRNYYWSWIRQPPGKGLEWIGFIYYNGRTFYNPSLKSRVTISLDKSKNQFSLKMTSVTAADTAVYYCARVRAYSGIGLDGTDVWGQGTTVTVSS VL: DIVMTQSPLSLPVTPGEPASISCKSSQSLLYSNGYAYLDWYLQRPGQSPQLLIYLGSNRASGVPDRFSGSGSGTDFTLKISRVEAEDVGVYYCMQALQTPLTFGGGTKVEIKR", "koff", "s⁻¹", 0.00729),
    ("Antibody E13 (antibody, human IgG1, kappa, L234A L235A, V domains shown) VH: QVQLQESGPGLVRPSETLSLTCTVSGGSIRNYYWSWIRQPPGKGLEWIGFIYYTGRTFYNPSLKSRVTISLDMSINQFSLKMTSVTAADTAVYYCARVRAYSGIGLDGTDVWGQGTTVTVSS VL: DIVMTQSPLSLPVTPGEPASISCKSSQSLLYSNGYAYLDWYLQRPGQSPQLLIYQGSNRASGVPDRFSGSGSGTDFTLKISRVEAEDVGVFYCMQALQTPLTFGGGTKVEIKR", "koff", "s⁻¹", 0.00711),
    ("Antibody E2 (antibody, human IgG1, kappa, L234A L235A, V domains shown) VH: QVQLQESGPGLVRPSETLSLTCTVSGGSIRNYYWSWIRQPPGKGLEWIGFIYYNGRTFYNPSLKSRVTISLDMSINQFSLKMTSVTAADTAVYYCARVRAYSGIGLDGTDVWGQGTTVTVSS VL: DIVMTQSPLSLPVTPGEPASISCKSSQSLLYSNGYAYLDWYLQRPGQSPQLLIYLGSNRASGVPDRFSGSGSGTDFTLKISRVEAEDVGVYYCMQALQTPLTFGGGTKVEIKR", "koff", "s⁻¹", 0.00512),
    ("Antibody E19 (antibody, human IgG1, kappa, L234A L235A, V domains shown) VH: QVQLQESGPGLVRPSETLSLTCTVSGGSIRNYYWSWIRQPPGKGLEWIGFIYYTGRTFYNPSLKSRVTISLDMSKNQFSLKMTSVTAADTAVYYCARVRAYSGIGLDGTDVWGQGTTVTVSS VL: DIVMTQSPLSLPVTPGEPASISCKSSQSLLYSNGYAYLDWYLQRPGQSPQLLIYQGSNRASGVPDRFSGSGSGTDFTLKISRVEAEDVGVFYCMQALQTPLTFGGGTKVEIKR", "koff", "s⁻¹", 0.00687),
    ("Antibody E9 (antibody, human IgG1, kappa, L234A L235A, V domains shown) VH: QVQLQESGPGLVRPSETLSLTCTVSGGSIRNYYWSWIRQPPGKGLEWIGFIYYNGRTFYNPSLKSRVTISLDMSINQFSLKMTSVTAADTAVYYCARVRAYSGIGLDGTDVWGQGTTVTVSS VL: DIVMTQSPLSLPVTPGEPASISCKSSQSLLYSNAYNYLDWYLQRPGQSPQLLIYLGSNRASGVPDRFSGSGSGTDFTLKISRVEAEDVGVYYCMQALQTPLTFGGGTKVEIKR", "koff", "s⁻¹", 0.0132),
]

Supply recorded koff for Antibody E1 (antibody, human IgG1, kappa, L234A L235A, V domains shown) VH: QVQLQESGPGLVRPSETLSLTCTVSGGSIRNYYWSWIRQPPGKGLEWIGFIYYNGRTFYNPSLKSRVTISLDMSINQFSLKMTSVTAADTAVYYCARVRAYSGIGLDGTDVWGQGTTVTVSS VL: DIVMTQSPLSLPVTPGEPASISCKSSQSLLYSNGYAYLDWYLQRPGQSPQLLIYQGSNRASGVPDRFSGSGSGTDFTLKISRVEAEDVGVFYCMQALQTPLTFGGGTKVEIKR here.
0.00317

Answer with the recorded koff for the binder listed here: Antibody E4 (antibody, human IgG1, kappa, L234A L235A, V domains shown) VH: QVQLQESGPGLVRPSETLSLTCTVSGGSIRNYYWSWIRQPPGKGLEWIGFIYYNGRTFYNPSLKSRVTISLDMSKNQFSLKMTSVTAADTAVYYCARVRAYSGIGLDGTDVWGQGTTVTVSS VL: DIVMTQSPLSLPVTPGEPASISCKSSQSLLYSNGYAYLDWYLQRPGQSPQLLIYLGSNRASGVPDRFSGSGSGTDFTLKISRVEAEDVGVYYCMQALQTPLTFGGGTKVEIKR
0.00451

Note down koff recorded for Antibody E17 (antibody, human IgG1, kappa, L234A L235A, V domains shown) VH: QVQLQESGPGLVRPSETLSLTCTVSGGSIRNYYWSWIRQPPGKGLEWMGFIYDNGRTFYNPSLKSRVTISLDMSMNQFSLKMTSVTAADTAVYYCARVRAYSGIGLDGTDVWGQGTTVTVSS VL: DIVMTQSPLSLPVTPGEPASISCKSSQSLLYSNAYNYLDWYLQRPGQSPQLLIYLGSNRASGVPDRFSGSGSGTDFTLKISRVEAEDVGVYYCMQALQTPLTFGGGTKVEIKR
0.0126

Assign koff to the following record: Antibody E18 (antibody, human IgG1, kappa, L234A L235A, V domains shown) VH: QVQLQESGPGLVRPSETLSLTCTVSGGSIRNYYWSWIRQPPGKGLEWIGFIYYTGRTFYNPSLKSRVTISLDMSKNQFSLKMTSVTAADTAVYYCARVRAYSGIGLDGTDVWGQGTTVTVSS VL: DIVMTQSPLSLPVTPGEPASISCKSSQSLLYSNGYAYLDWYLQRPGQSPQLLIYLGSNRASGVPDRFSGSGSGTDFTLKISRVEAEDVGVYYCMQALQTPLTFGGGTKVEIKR
0.0113
